Experiment: yeast display, Sf9 membrane polyspecificity reagent, FACS + sequencing; frameworks hold sequencing errors
reported-property: polyreactivity (PSR sort gate)

- input-sequence: "QVQLVESGGGLVQAGGSLRLRCADSGRNFVSNAMGWYRQAPGKERELVAAISKSGARTSYADSVKGRFTISRDNAKNTVYLQMNRLKPEDTAVYYCAAPVRWSGGGEYPNYYWGQGTQVTVSS"
  reported-property: "polyreactivity (PSR sort gate)"
  reported-measurement: "high polyreactivity"
- input-sequence: "QVQLVDSGGGLVQAGGSLRLSCAASGRIFRWNAMGWYRQAPGKERELVAVISSGGSTNYADSVKGRFTISRDNAKNTVYLQMNSLKPEDTAVYYCAKGLIRYSHLDYWGQGTQVTVSS"
  reported-property: "polyreactivity (PSR sort gate)"
  reported-measurement: "low polyreactivity"
- input-sequence: "QVQLVESGGGLVPAGGSLRLSCAASGLTIYHYAMGWYRQAPGKERELVAAISYSGGSTYYADSVKGRFTISRDNAKNTVYLQMNSLKPEDTAVYYCAAYARHYGTSSLRYDYWGQGTQVTVSS"
  reported-property: "polyreactivity (PSR sort gate)"
  reported-measurement: "high polyreactivity"
- input-sequence: "QVQLVESGGGLVQAGGSLRLSCAASGFIFYRYAMGRYRQAPGKERELVAAISWYGGTTYYADSVKGRFTISRDNAKNTVYLQMNSLKPEDTAVYYCAASRLRTEYYWGQGTQVTVSS"
  reported-property: "polyreactivity (PSR sort gate)"
  reported-measurement: "high polyreactivity"
- input-sequence: "QVQLVESGGGLVQAGGSLRLSCAASGFTFISYAMGWYRQAPGKERELVADISSSGDSTSYADSVKGRFTISRDNAKNTVYLQMNSLKPEDTAVYYCAAGDGYVYGEYDYWGQGTQVTVSS"
  reported-property: "polyreactivity (PSR sort gate)"
  reported-measurement: "low polyreactivity"

###

Experiment: yeast display, Sf9 membrane polyspecificity reagent, FACS + sequencing; frameworks hold sequencing errors

- input-sequence: "QVQLVESGGGLVHAGGSIRLSCAASGRIFDSNAMGRYRQAPGKEREVVAAITYSGGGTFYADSVKGRFTSSRDNAKNTVYLQMNCLKPEDTAVYYCNKLPHYFGPVYWFKGDDGYWGQGTQVTVTS"
  polyreactivity (PSR sort gate): "high polyreactivity"
- input-sequence: "LVQLVESGGGLVQAGGSLRLSCAASGNTFVSNAMGWYRQAPGKERELVAAIDSGGSTNYADSVKGRFTISRDNAKNTVYLQMNSLKPDDTAVYYCTRTSVYYYYWGQGTQVTVSS"
  polyreactivity (PSR sort gate): "low polyreactivity"
- input-sequence: "QVQLVESGGVLVQAGGSLRLSCAASGRIFPSYDMGWYRQAPAKERELVDTISTRGDSTYYADSVKGRFTISRDNAKNTVYLQMNSQKPEDTAVYYCAAERPFWEYDYWGQGTQVTVSS"
  polyreactivity (PSR sort gate): "low polyreactivity"
- input-sequence: "QVQLVESGGGLVQAGGSLRLSCAASGSTFVSYDMGWYRQAPGKERELVAAIDWSGGNTDYADSVKGRFTISRDNAKNTVYLQMNSLKPEDNAVYYCAVEKFFRAEYDHWGQGTQVTVSS"
  polyreactivity (PSR sort gate): "low polyreactivity"
- input-sequence: "QDHLVESGGGLDQAGGSLRLSCAASGRILGDYAMGWYRQAPGKEREFVAAIDYNGGSTNYADSVKGRFTISRDNAKNTVYLQMNSLKPEDTAVYYCAAPGFPSRNGFGYWGQGTQVTVSS"
  polyreactivity (PSR sort gate): "low polyreactivity"
- input-sequence: "QVQLVESGGGLVQAGGSLRLSCAASGITFDVYAMGWYRQAPGKERELVAAISSVGGTYYADSVKGRFTISRDNAKNTVYLQMNSLKPEDTAVYYCNTDGYVGSIRSGLYIYDYWGQGTQVTVSS"
  polyreactivity (PSR sort gate): "low polyreactivity"
- input-sequence: "QVQLVESGGGLVQAGGSLRLSCAASGRIIGYNAMGWYRQAPGKERELVAAIDYTGGSTYYADSVKGRFTISLDNAKNTVYLQMNSLKPEDTAVYYCAKDRTTPWEEDDYWGQGTQVTVSS"
  polyreactivity (PSR sort gate): "low polyreactivity"
- input-sequence: "QVQLVESGGCLVQAGGSLRLSCAASGRTSDGYAMGWYRQAPGKERELVAGITEGGGDTYYADSVKGRFTISRDNAKITDYLQMNSLKPEDTAVYYCNAGEGSRLPYDYWGQGTQVTVSS"
  polyreactivity (PSR sort gate): "low polyreactivity"
- input-sequence: "QVQLVESGGGLVQAGGSLRLSCAASGSTFVRYAMGWYRQAPGKERELVAAISKRGGSTYYADSVKGRFTISRDNAKNTVYLQMNSLKPEDTAVYYCAAVPLSSRQYDYWGQGTQVTVSS"
  polyreactivity (PSR sort gate): "high polyreactivity"
- input-sequence: "QVQLVESGGGLVQAGGSLPLSCAASGGTFYKYAMGWYRQAPGKERELVARISRGGSTYYADSVKGRFTISRDNAKNTVYLQMTSLKPEDTAVYYCAKLWYAVWPIVVQYNYWGQGTQVNVSS"
  polyreactivity (PSR sort gate): "high polyreactivity"
- input-sequence: "QVQLQESVGGLVQAGGSLRLSCPASGSIFKVVDMVLYRQAPAKEREFVATIGVGGNTYYADSVKGRFTISRDNAKNTVYLQMNSLKPEDTAVYFYAVVLGTSYRYTYWGQGTQVTVSS"
  polyreactivity (PSR sort gate): "low polyreactivity"

###

Assay: yeast display, Sf9 membrane polyspecificity reagent, FACS + sequencing; frameworks hold sequencing errors

- input-sequence: "QVQLLESGGGLVQAGGSLRLSCAASGGIFPAYAMGWYRQAPGKERELFADITNGGSTYYADSVKGRFTISRDNAKNTVYLQMNSLKPEDTAVYYCNAREFWRTRFGCGYPYRRNMDYWGQGTQVTVSS"
  polyreactivity (PSR sort gate): "low polyreactivity"
- input-sequence: "QVQLVESGGGLVQAGGSLRLSCAASGRTFATYAMAWYRQAPGKERELVAAISRSGSTTYYADSVKGRFTISRDNAKNTVYLQMNSLKPEDTAVYYCNAKFRKADYDYWGQGTQVTVSS"
  polyreactivity (PSR sort gate): "high polyreactivity"
- input-sequence: "QVQLVESGGGLVQPGGSLRLSCAASGSIFTRNAMGWYRQAPGKERELVAAITKRGGSTYYADSVKGRFTISRDNAKNTVYLQMNSLKPEETAVYSCAADVYKYKHTQEYHVGRMDYWGQGTQVTVSS"
  polyreactivity (PSR sort gate): "low polyreactivity"
- input-sequence: "QVQLVESGGGLVQAGGSLRLSCAASGRTFLIYDMGWYRQAPGKVRELVAAIRDRGATTYYADSVKGRFTISRDNAKNTVYLHMNSLKPEDTSVYYCSARNGAYPALKEGDYWGQGTQVTVSS"
  polyreactivity (PSR sort gate): "high polyreactivity"
- input-sequence: "QVQLVESGGGLVQAGGRLRLSCAASGSIFFGNVIGWYRQAPGKEREWVAAINTDGRTYYADSVKGRFTISRDNAKNTVYLQMNSLKPEDTAVYYCAKAVWWSLPAQKSYLYYYWGQGTQVTVSS"
  polyreactivity (PSR sort gate): "high polyreactivity"

###

Assay: yeast display, Sf9 membrane polyspecificity reagent, FACS + sequencing; frameworks hold sequencing errors
reported-property: polyreactivity (PSR sort gate)

- input-sequence: "QVQLVESGGGLVQAGGSLRLSCAASGRIFGRYAMGWYRQAPGKERELVAAISSRGSRTYYADSVKGRFTISRDNAKNTVYLQMNSLKPEDTAVYYCAATWLSNPSDYDYWGPGTQVTVSS"
  reported-measurement: "high polyreactivity"
- input-sequence: "QVQLVESGGGLVQAGGSLRLSCAGSGSTVSANALGSYRQAPGKDRELVAAISRRGGSTNYADSVKGRFTISRDNAKNTVYLQMNSLKPEDTAVYYCAGLYVPRSPFSYDYWGQGTQVTVSS"
  reported-measurement: "high polyreactivity"
- input-sequence: "QVQLVESGGGLVQAGGRLRLSCAASGSTFGDYAMGWYRQAPGKEREFVAAITWSGGSTNYADSVKGRFTISRDYAKNTVYLPMNSLKPEDTAVYYCAKPWYSSGFEYWGQGTQLTVSS"
  reported-measurement: "high polyreactivity"
- input-sequence: "QVQLEESGRGLVQAGGSLRLSCAASGNTLGYNAMGWYRQAPGKVRELVATFRGSGGITYYADSVKGRFTISRDNALNTVYLQMNSLKPEDTAVYYCANVYKSRVKGDHWGQGTQVTVSS"
  reported-measurement: "low polyreactivity"
- input-sequence: "QVQLVESGGGLVQAGGSLSLSCAASGFIFYGYAMGWYRQAPGKEREIVAAISGRGDRTYYADSVKGRFTISRDNAKNTVYLQMNSLNPEDTAVYYCAALQLRYSGALWYDYWGQGTQVTVSS"
  reported-measurement: "high polyreactivity"
- input-sequence: "QVQLVESGGGLVQAGGSLRLSCAASGSTFLYYAMGWYRQAPGKERELVAAIDSGGSTYYADSVKGRFTISRDNAKNTVYLQMNSLKPEDTAVYYCNADFADHWPPNGPGALDYWGQGTQVTVSS"
  reported-measurement: "low polyreactivity"
- input-sequence: "QVQLVESGGGLVQAGGSLRLSCAASGSTFASNAMGWYRQAPGKERELVAAITSRDASTYYADSVKGRFTISRDKEKNTVYLQMNSLKPEDTAVYYCAPVGYSPAAFDYWGQGTQVTVSS"
  reported-measurement: "low polyreactivity"
- input-sequence: "QVQLVESGGGLVQAGGSLRLSCAASGFTFGYNTMGWYRQAPGNERELGAAISWRGGSTFYADSVKGRFTISRDNAKNTVYLQMNSLKPEDTAVYYCNVLRLDQRYPSLRDDWGQGTQVTVSS"
  reported-measurement: "high polyreactivity"
- input-sequence: "QVQLVESGGGLVQAGGSLRLSCAASGGTFVPYAMGWYRQAPGKERELVAAITIGGSTSYADSVKGRFTISRDNAKNTVYLQMNSLKPEDTAVYYCNARSYPDYIYWSQRYDYDYWGQGTQVTVSS"
  reported-measurement: "low polyreactivity"
- input-sequence: "QVQLVESAGGLVQAGGSLRLSCAASGSTFQYYAMGWYRLAPGKDRELVATITLIAGSTYADSVKGRFTISRDNAKNTVYLQMNSLNPEDTEVYYCAADDGGYETPELLYGGRGDDWGQGTQVTVSS"
  reported-measurement: "low polyreactivity"
- input-sequence: "QVQLVESGGGLVQAGGSLRLSCAASGFTFSNYAMGWYRQAPGKERELVAAISFRTGRTYYADSVKWRFTISRDNAKNTVFLQMNILKPEDTAVYYCAVQPYHSYLHNYWGQGTQVTVSS"
  reported-measurement: "high polyreactivity"
- input-sequence: "QVQLVESGGGLVQAGGSLRLSCAASGSNFYGNAMGWYRQAPGKERELVAAISRSGGRSYYADSVKGRFTISRDNAKNTVYLHMNSLKPEATAVYYCAARQYQATLQYGYYPGYGYWGQGTQVTVSS"
  reported-measurement: "high polyreactivity"
- input-sequence: "QVQLVESGGGLVQAGGSLRLSCAASGRILGFYAMGWYRQAPGKERELDARINWSGTRTYYADSVKGRFTISRDNAKNTVYLQMNSLKPEDTAVYYCAAERYPYGVTYSKLDYWGQGTQVTVSS"
  reported-measurement: "high polyreactivity"
- input-sequence: "QVQHVESGGGLVQAGGSLRLSCAASGIIFGTNALGWYRQAPGKERELVAYITSGGSTYADSVKGRFTISRDNAKNTVYLQMNSLKPEDTAVYYCAAYVFWAFYEYDYWGQGTQVTVSS"
  reported-measurement: "low polyreactivity"
- input-sequence: "QVQLVESGGGLVQAGCSLRLSCSASGSIFYSYAMGWYRQAPGKERELVAAITSVVSTNYADSVKGRFTISRDYAKNTVYLQMNRLKTEDTAVYYCAAGYLRLYYVCLDDSYGYDYWGQGTQVTVSS"
  reported-measurement: "low polyreactivity"
- input-sequence: "QVQLVESGGGLVQAGGSLRLSCASSGSTFSYYDMGWYRQAPGKERELVAAISWNGGTTYYADSVKGRFTISRDNAKNTVYLQMNSLKPEDTAVYYCAATWDFYWAPYDSWGQGTQVSVSS"
  reported-measurement: "low polyreactivity"
- input-sequence: "QVQLVESGGCLVQAGGSLRLSCAASGRRVQTYAMGWYRQAPRKERELVAAISIRGGSTYYADSVKGRFTISRDNAKNTVYLQKNSLTPEDTAVYYCNALYGRQIVDYEYWGQGTQVTVSS"
  reported-measurement: "low polyreactivity"
- input-sequence: "QDQLVESGGVLVQAGGSLRLSCAASGNIFAVYAMGWYRQAPGKERELVAAITTGTNTYADSVKGRFTISRDNAKNTVYLQMNSLKTEDTAVYYCAARSYRPLDYWGQGTQVTVSS"
  reported-measurement: "low polyreactivity"
- input-sequence: "QVQLVESGGGLVQAGGSLRLSCAASGGIFKRYAMGWYRQAPGKERELVAAISGRGGGTYYADSVKGRFTISRDNATNTVYLQMTSLKPEDTAVYYCNARLSWSAFGYWGQGTQVTVSS"
  reported-measurement: "high polyreactivity"
- input-sequence: "QVQLVESGGGLVQAGGRLRLSCAASGSISQTNAMGWYRKAPGKERELVAAISGSGGSTYADSVKGRFTISRDNAKNTVYLQMNSLKPEDTAVYYCARDRYYTREWYWYRHDHWGQGTQVTVSS"
  reported-measurement: "low polyreactivity"
- input-sequence: "QVQLVESGGGLVQAGGSLRLSCAASGYTFWWYAMGWYRQAPGKEREFVAAIRFSGGTRTYYADSVKGRFTISRENAKYTVFLQMNSLKPDDTAVYYCAADIAFRQWQVGDFDYWGQGTQVTVSS"
  reported-measurement: "low polyreactivity"
